Test system: 786-0 renal
assay.details: NCI-60 one-dose screen, 48 h (100 = growth as untreated, 0 = no growth, -100 = all killed)
condition.label: 10 µM unless noted
Method: Cells are grown in 96 well plates and exposed to the test compound for 48 hours. Compounds are tested at a single concentration, which is 10^-5 M for most compounds. The reported endpoint is percent growth (GI% or GIPRCNT), where numbers from 0 - 100% represent growth inhibition, and numbers from -100% - 0 represent cell death. For example, a value of 40 represents 60% growth inhibition. A value of 0 means no net growth occurred over the course of the experiment. […]
The panel holds about 83,000 compounds, 20% with a hit somewhere; the sample as a whole holds those more often. Active and inactive are the calls of the source. How the source made its calls: active means growth percent below 10; inactive means the rest.
quantity: growth

>>> result("c1ccc(-c2csc(Nc3cccc(Nc4nc(-c5ccccc5)cs4)c3)n2)cc1")
"50.4% (inactive)"
>>> result("COc1ccc(/C=C2\\C(=O)Nc3ccc(Cl)cc32)cc1OCc1ccccn1")
"-18.6% (active)"
>>> result("COc1cc(/C=C/C(=O)c2ccc(C)cc2)ccc1Oc1nc(Nc2ccc(F)cc2)nc(N(C)C)n1")
"37.5% (inactive)"
>>> result("O=C(/C=C/Nc1ccc(Cl)cc1)c1ccc2c(c1)Nc1ccccc1S2")
"-6.27% (active)"
>>> result("Cc1ccccc1[C@H]1C(C(=O)c2ccc(Cl)cc2)C2(N[C@@H]1c1ccccc1)C(=O)Nc1ccc(Cl)cc12 (stereo partly drawn)")
"-39.3% (active)"
>>> result("Cc1ccc(C(=O)CSc2nc3ccc(F)cc3c(=O)n2-c2ccc(Cl)cc2)cc1")
"10.7% (inactive)"
>>> result("Nc1nnc(-c2c[nH]c3ccc(Br)cc23)c(-c2c[nH]c3ncc(Br)cc23)n1")
"34.7% (inactive)"
>>> result("C=C1CC[C@@H]2[C@]3(C)COC(c4cn(-c5ccccc5)nc4-c4ccccc4)O[C@@H]3CC[C@@]2(C)[C@@H]1C/C=C1/C(=O)OC[C@H]1O (stereo partly drawn)")
"-61.3% (active)"
>>> result("Cc1cccc(-c2nc(Nc3ccc(C)c(S(N)(=O)=O)c3)c3ccccc3n2)c1")
"10.8% (inactive)"
>>> result("Cc1cc(C)cc(C(=O)Nc2cccc(-c3cn(-c4ccc(S(N)(=O)=O)cc4)nn3)c2)c1")
"-66.3% (active)"
>>> result("COc1cc(/C=C2\\C(=N)N=C(SCc3nc4ccccc4[nH]3)NC2=O)ccc1O")
"109% (inactive)"
>>> result("Cc1ccccc1[C@H]1C(C(=O)c2ccc(Cl)cc2)C2(N[C@@H]1c1ccccc1)C(=O)Nc1ccc(Br)cc12 (stereo partly drawn)")
"-40.5% (active)"
>>> result("COc1ccc(-c2nc3cc(C)ccc3n2CC(=O)N=Nc2c(O)[nH]c3ccc(OC)cc23)cc1")
"-69.3% (active)"
>>> result("COC(OC)C1=C(C)OC(N)=C(C#N)C12C(=O)Nc1ccccc12 (stereo not drawn)")
"113% (inactive)"
>>> result("Nc1nnc(-c2c[nH]c3ncc(Br)cc23)c(-c2c[nH]c3ccc(F)cc23)n1")
"39.2% (inactive)"
>>> result("O=C(COc1ccc(NC(=O)Nc2ccc(Cl)c(Cl)c2)cc1)N=Nc1c(O)[nH]c2ccc(Br)cc12")
"-70.3% (active)"
>>> result("COc1ccc(NC(=O)Cn2c(O)c(N=Nc3ccc(S(N)(=O)=O)cc3)c3ccccc32)cc1")
"-25.3% (active)"
>>> result("COc1ccc(-c2nnc3ccc(N/N=C/c4ccc(C)cc4)nn23)cc1")
"56.9% (inactive)"

The values you see were collected from PubChem BioAssay (NCI).
